target: NADPH oxidase 5 (Homo sapiens); assay: Inhibition of full length human NOX5 transfected in HEK cells assessed as inhibition of ionomycin-stimulated ROS generation by chemiluminescence assay
Sequence (Q96PH1 whole entry): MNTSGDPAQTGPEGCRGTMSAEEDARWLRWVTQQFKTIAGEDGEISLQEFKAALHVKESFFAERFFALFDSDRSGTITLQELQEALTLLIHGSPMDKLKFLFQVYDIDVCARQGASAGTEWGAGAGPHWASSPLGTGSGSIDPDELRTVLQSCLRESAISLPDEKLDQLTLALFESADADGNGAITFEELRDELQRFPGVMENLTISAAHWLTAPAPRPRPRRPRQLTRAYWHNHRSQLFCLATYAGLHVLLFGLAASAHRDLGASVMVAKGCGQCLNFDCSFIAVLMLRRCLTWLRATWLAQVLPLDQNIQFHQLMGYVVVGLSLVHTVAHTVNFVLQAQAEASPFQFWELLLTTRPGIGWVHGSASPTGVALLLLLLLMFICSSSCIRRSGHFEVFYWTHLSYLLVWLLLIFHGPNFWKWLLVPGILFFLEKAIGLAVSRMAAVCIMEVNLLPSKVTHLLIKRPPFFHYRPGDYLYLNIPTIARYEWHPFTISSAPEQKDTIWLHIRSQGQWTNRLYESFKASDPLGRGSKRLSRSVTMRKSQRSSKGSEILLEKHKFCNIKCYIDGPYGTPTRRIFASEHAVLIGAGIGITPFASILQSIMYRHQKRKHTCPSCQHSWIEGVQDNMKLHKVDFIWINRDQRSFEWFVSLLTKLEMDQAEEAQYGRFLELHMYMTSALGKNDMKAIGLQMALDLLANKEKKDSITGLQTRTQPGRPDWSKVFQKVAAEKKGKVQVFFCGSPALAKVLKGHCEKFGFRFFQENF
quantity: IC50

C=C(C)C[C@@H]1N[C@H]2CC(C)(C)[C@@H]1c1ccccc12 (racemic) ... > 100 µM
C=C(C)C[C@H]1[C@H]2c3c(-c4ccc(Cl)c(Cl)c4)cccc3[C@H](CC2(C)C)N1Cc1ccc2c(c1)OCO2 (racemic) ... > 100 µM
C=C(C)C[C@H]1[C@H]2c3c(Br)cccc3[C@H](CC2(C)C)N1Cc1ccnc2ccccc12 (racemic) ... > 100 µM

Okay, now this compound:
stdin: Supply reported IC50 belonging to this compound: C=C(C)C[C@@H]1N[C@H]2CC(C)(C)[C@@H]1c1c(-c3ccc(Cl)c(Cl)c3)cccc12 (racemic)
stdout: 14 µM
